testSystem: T1, human APJ receptor (hAPJ) (human, UniProt P35414 1-380)
T1 sequence (looked up): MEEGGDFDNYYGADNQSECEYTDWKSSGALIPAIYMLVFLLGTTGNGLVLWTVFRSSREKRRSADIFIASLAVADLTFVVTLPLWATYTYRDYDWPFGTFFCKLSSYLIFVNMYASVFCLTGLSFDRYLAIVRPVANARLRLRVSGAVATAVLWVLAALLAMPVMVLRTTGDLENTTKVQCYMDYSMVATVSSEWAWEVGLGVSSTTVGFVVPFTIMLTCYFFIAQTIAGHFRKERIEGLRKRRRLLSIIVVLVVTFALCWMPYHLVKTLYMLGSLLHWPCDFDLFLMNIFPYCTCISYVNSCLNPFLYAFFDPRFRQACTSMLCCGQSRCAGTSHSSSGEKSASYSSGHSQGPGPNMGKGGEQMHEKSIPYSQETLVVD
method: cell-based or functional assay
Bridges are numbered along the chain shown (N, C = ends). [ ]: non-standard residue; d: D form. Nle = CCCC[C@H](N)C(=O)O
Assign labels as follows, please: Fulfilled for hAPJ Ca^2+ Flux EC50 below 0.6 nM; Not fulfilled for hAPJ Ca^2+ Flux EC50 equal to or exceeding 0.6 nM.

Recorded results for 2 binders are shown here.
Ac-CRPRLSCKGP[Nle]P[dF]-OH (disulfide 1-7; SMILES CCCC[C@H](NC(=O)[C@@H]1CCCN1C(=O)CNC(=O)[C@H](CCCCN)NC(=O)[C@@H]1CSSC[C@H](NC(C)=O)C(=O)N[C@@H](CCCNC(=N)N)C(=O)N2CCC[C@H]2C(=O)N[C@@H](CCCNC(=N)N)C(=O)N[C@@H](CC(C)C)C(=O)N[C@@H](CO)C(=O)N1)C(=O)N1CCC[C@H]1C(=O)N[C@H](Cc1ccccc1)C(=O)O) [Ac-C*-R-P-R-L-S-C*-K-G-P-Nle-P-f-OH]
Not fulfilled
ERPCLSCKGPL (pE at 1; disulfide C4-C7; Nle at 11 with C-terminal NH(Phenethyl) amide) [pE-R-P-C*-L-S-C*-K-G-P-Nle-NH(Phenethyl)]
Fulfilled

Task: # TODO verify hAPJ Ca^2+ Flux EC50 < 0.6 nM strictly for this binder: ERPCLSCKGPLPF (pE at 1; disulfide C4-C7; Nle at 11; free C-terminal acid) [pE-R-P-C*-L-S-C*-K-G-P-Nle-P-F-OH]
Result: Not fulfilled

Task: Hi there! Is hAPJ Ca^2+ Flux EC50 for ERPCLSCKGPL (pE at 1; disulfide C4-C7; D-Nle at 11 with C-terminal NH(Phenethyl) amide) [pE-R-P-C*-L-S-C*-K-G-P-(D-Nle)-NH(Phenethyl)] below 0.6 nM, do you know?
Result: Not fulfilled
